Sourced from patent US6977154

- Assayed target: zfHHA(Y)
- Experiment: phage ELISA, apparent Kd; PBS, 50 uM ZnCl2, 20 C
- Measurement conditions: protein: virion; tags: phage fd pIII fusion (Fd-Tet-SN), Zif268 framework; label: 5' biotin
Property label: Kd (nM)
Number in nM, nothing else.

INPUT: Given HHA(M) G-GMGC-GGCG (dsDNA, 5mC at M (G-GMGC-GGCG), both strands [5mC at 9 (top strand); bottom-strand 5mC opposite G10]) DNA 1: TATAGTGGCGCGGCGTGTCACAGTCAGTCCACACACGTC DNA 2: GACGTGTGTGGACTGACTGTGACACGCCGCGCCACTATA , state its recorded Kd.
OUTPUT: 14
